- assay system: p34 cdc2(CDK1)/cyclinB
- protocol text: CDK assay: histone H1 phosphorylation with [32P]ATP by cdc2/cyclinB kinase
- Assay type: biochemical, starfish (Marthasterias glacialis)
- measurement context: values in nM; read-out: IC50 ± SD CDK1
measure: log10 of IC50 (log10 of the value in nM)

[[record]]
compound = "O=S(=O)(NCC(F)(F)F)c1ccc(Nc2nc(OCC3CCCCC3)c3nc[nH]c3n2)cc1 [NU6163]"
observed = 1.82

[[record]]
compound = "COc1cc(Nc2nc(OCC3CCCCC3)c3nc[nH]c3n2)ccc1S(N)(=O)=O [NU6161]"
observed = 2.01

[[record]]
compound = "CCCNS(=O)(=O)c1ccc(Nc2nc(OCC3CCCCC3)c3nc[nH]c3n2)cc1 [NU6133]"
observed = 1.53

[[record]]
compound = "CC1CCCCC1COc1nc(Nc2ccc(S(N)(=O)=O)cc2)nc2[nH]cnc12 (centres unmarked) [NU6158]"
observed = 0.78

[[record]]
compound = "O=S(=O)(Nc1ccccn1)c1ccc(Nc2nc(OCC3CCCCC3)c3nc[nH]c3n2)cc1 [NU6154]"
observed = 1.30

[[record]]
compound = "NS(=O)(=O)c1ccc(Nc2nc(OCC3CCCC3)c3nc[nH]c3n2)cc1 [NU6166]"
observed = 1.15

[[record]]
compound = "COCCNS(=O)(=O)c1ccc(Nc2nc(OCC3CCCCC3)c3nc[nH]c3n2)cc1 [NU6135]"
observed = 1.26

[[record]]
compound = "Cc1cc(NS(=O)(=O)c2ccc(Nc3nc(OCC4CCCCC4)c4nc[nH]c4n3)cc2)nc(C)n1 [NU6160]"
observed = 1.45


###

- assay system: p34 cdc2(CDK1)/cyclinB
- protocol text: CDK assay: histone H1 phosphorylation with [32P]ATP by cdc2/cyclinB kinase
- Format: biochemical, starfish (Marthasterias glacialis)
- measurement context: values in nM; read-out: IC50 ± SD CDK1
Mark Fulfilled for IC50 under 40 nM, Not fulfilled if at or over.

[[record]]
compound = "C[C@H](O)CNS(=O)(=O)c1ccc(Nc2nc(OCC3CCCCC3)c3nc[nH]c3n2)cc1"
group = "Fulfilled"

[[record]]
compound = "O=S(=O)(NCCO)c1ccc(Nc2nc(OCC3CCCCC3)c3nc[nH]c3n2)cc1"
group = "Fulfilled"

[[record]]
compound = "CN(C)S(=O)(=O)c1ccc(Nc2nc(OCC3CCCCC3)c3nc[nH]c3n2)cc1"
group = "Not fulfilled"

[[record]]
compound = "NC(=O)Cc1ccc(Nc2nc(OCC3CCCCC3)c3nc[nH]c3n2)cc1"
group = "Not fulfilled"

[[record]]
compound = "CC(C)CNS(=O)(=O)c1ccc(Nc2nc(OCC3CCCCC3)c3nc[nH]c3n2)cc1"
group = "Not fulfilled"

[[record]]
compound = "CCNC(=O)c1ccc(Nc2nc(OCC3CCCCC3)c3nc[nH]c3n2)cc1"
group = "Not fulfilled"

[[record]]
compound = "CC(O)CNS(=O)(=O)c1ccc(Nc2nc(OCC3CCCCC3)c3nc[nH]c3n2)cc1 (centres unmarked)"
group = "Fulfilled"

[[record]]
compound = "NS(=O)(=O)c1ccc(Nc2nc(OCC3CC=CCC3)c3nc[nH]c3n2)cc1 (centres unmarked)"
group = "Fulfilled"

[[record]]
compound = "O=S(=O)(NCC(O)CO)c1ccc(Nc2nc(OCC3CCCCC3)c3nc[nH]c3n2)cc1 (centres unmarked)"
group = "Fulfilled"

[[record]]
compound = "O=S(=O)(Nc1nccs1)c1ccc(Nc2nc(OCC3CCCCC3)c3nc[nH]c3n2)cc1"
group = "Fulfilled"

[[record]]
compound = "O=S(=O)(NC1CC1)c1ccc(Nc2nc(OCC3CCCCC3)c3nc[nH]c3n2)cc1"
group = "Fulfilled"

